assay_remarks: inhibitors of CD40-induced NF-kB signaling, primary screen, BL2 cells, luciferase reporter, single point (AID 1053188);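 also: 0% = neutral control wells and 100% = IKK inhibitor VII at 50 µM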
condition_notes: CD40L-induced, 4 h; at 10 µM unless noted
The whole screen tested about 83,000 compounds, of which about 780 (0.94%) were called active.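 The calls were made as follows: active = mean inhibition of at least 50% with a set share of replicates also reaching that level; inconclusive = no clear call, values can overlap the other calls; inactive = the rest.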 The entries come from a sample that favours actives as a whole.
Pick one and only one: active, inactive

# example entries with known answers
molecule | label
Cc1ccc(/C([O-])=C(/C(=S)NCc2ccco2)[n+]2ccccc2)cc1[N+](=O)[O-] | inactive
COc1ccc(CN2CCC(c3nc4ccc(Cl)cc4[nH]3)CC2)cc1 | inactive
CN(C)CCNC(=O)c1ccc(Cl)c2cc3ccccc3nc12 | active
CCCN(CC(=O)Nc1ccccc1C)C(=O)c1ccc(OCC(=O)N2CCOCC2)c(OCC)c1 | active

Returns: the outcome recorded for Cc1cc(C)c2nc(N3CCC(C(=O)NCCN4CCOCC4)CC3)sc2c1 in this assay.
inactive

Returns: the outcome recorded for O=C(Nc1ccc2c(c1)OCCO2)C1CCCN(c2ncccn2)C1 (configuration not stated) in this assay.
inactive

Returns: the outcome recorded for N/C(=N\OC(=O)Cc1ccc([N+](=O)[O-])cc1)c1ccccn1 in this assay.
active

Returns: the outcome recorded for Cc1nnc(CN(C)Cc2cn[nH]c2-c2ccc(-c3ccccc3)cc2)o1 in this assay.
inactive

Returns: the outcome recorded for O=C(NNC(=O)C1CCN(c2ncccn2)CC1)c1ccccc1 in this assay.
inactive

Returns: the outcome recorded for Cc1ccc(S(=O)(=O)N(C)CC(=O)NCCc2c[nH]c3ccccc23)cc1 in this assay.
inactive

Returns: the outcome recorded for Cc1cc([N+](=O)[O-])nn1CC(=O)Nc1ccc(Cc2ccncc2)cc1 in this assay.
inactive

Returns: the outcome recorded for O=C(Nc1ccc2c(c1)OCCO2)c1ccncc1 in this assay.
inactive

Returns: the outcome recorded for CCOC(=O)C1(Cc2cccc(OC)c2)CCN(Cc2csc(C(C)=O)c2)CC1 in this assay.
inactive

Returns: the outcome recorded for CS(=O)(=O)N1[C@H](C#N)[C@H](c2ccc(C#CC3CCCC3)cc2)[C@H]1CO in this assay.
inactive

* * *

assay_remarks: inhibitors of CD40-induced NF-kB signaling, primary screen, BL2 cells, luciferase reporter, single point (AID 1053188);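 also: 0% = neutral control wells and 100% = IKK inhibitor VII at 50 µM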
condition_notes: CD40L-induced, 4 h; at 10 µM unless noted
Hit rate of the full screen: of about 83,000 compounds, about 780 (0.94%) were called active.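 How the source made its calls: active means mean inhibition of at least 50% with a set share of replicates also reaching that level; inconclusive means no clear call, values can overlap the other calls; inactive means the rest.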 Only a selection was taken, and actives are over-represented in it overall.
Pick one and only one: T = active, F = inactive

# example entries with known answers
compound | label
O=C(COC(=O)c1ccncc1)Nc1ccc2c(c1)OCO2 | F
O=C(COC(=O)c1ccc2c(c1)OCCO2)NCc1ccccc1Cl | F
CCOc1ccc(C(=O)CCN2CCOCC2)cc1 | F

Returns: the outcome recorded for O=C(Nc1ccccc1)Nc1nc2ccccc2s1 in this assay.
F

Returns: the outcome recorded for Cn1c(N)cc(-c2ccc(F)cc2)c(C#N)c1=O in this assay.
F

Returns: the outcome recorded for C[C@@H]1CN([C@@H](C)CO)C(=O)c2cc(C#CCc3ccccc3)cnc2O[C@@H]1CN(C)C(=O)C1CCOCC1 in this assay.
T

Returns: the outcome recorded for CN(Cc1ccc2nsnc2c1)Cc1nc(Cc2cccc(F)c2)no1 in this assay.
F

Returns: the outcome recorded for N#C[C@@H]1[C@@H](c2ccc(C#Cc3cccc(F)c3)cc2)[C@H](CO)N1C(=O)C1CCOCC1 in this assay.
F

Returns: the outcome recorded for COc1cccc(NC(=O)COC(=O)c2ccc3ccccc3n2)c1 in this assay.
F

* * *

assay_remarks: inhibitors of CD40-induced NF-kB signaling, primary screen, BL2 cells, luciferase reporter, single point (AID 1053188);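 also: 0% = neutral control wells and 100% = IKK inhibitor VII at 50 µM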
condition_notes: CD40L-induced, 4 h; at 10 µM unless noted
Hit rate of the full screen: of about 83,000 compounds, about 780 (0.94%) were called active.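 How the source made its calls: active means mean inhibition of at least 50% with a set share of replicates also reaching that level; inconclusive means no clear call, values can overlap the other calls; inactive means the rest.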 This excerpt belongs to a sample that is enriched for actives.
Pick one and only one: Yes for active, No for inactive

Returns: the outcome recorded for CCOC(=O)C(CC)/C(C)=N\NC(=O)c1cccc(C)c1 (stereo not drawn) in this assay.
No

Returns: the outcome recorded for COc1ccc(C#Cc2ccc([C@H]3[C@@H](CO)N4CCCCN(S(=O)(=O)c5cn(C)cn5)C[C@H]34)cc2)cc1 in this assay.
Yes

Returns: the outcome recorded for COc1ccc(C#Cc2ccc([C@@H]3[C@@H](CO)N4CCCCN(C(=O)c5ccncc5)C[C@@H]34)cc2)cc1 in this assay.
No

Returns: the outcome recorded for COC(=O)CCNc1ccc2c(c1)OCCO2 in this assay.
Yes

Returns: the outcome recorded for Cc1cnc(NC(=O)c2ccccn2)s1 in this assay.
Yes

Returns: the outcome recorded for CC(C)NC(=O)N(C)C[C@H]1Oc2ccc(NS(C)(=O)=O)cc2C(=O)N(C)C[C@@H]1C in this assay.
No

Returns: the outcome recorded for CC(OC(=O)C1CC(=O)N(Cc2ccccc2)C1)C(=O)Nc1ccccc1[N+](=O)[O-] (stereo not drawn) in this assay.
No

Returns: the outcome recorded for COc1ccc(NC(=O)c2cc3nc(-c4ccccc4)cc(C)n3n2)cc1OC in this assay.
No

* * *

assay_remarks: inhibitors of CD40-induced NF-kB signaling, primary screen, BL2 cells, luciferase reporter, single point (AID 1053188);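 also: 0% = neutral control wells and 100% = IKK inhibitor VII at 50 µM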
condition_notes: CD40L-induced, 4 h, hits give high values; at 10 µM unless noted
About 780 (0.94%) of roughly 83,000 compounds were called active. This excerpt belongs to a sample that is enriched for actives.
Reported inhibition values follow for various compounds
Numbers only here, please. The scale is %.

Guide cases for inhibition, answers given:
compound | measured_quantity | recorded_value
CCC1CCC2(CC1)NC(=O)N(CC(=O)Nc1ccc(OC)cc1)C2=O (stereo not drawn) | inhibition | -0.377
COc1ccc2ccccc2c1CNc1nnnn1C | inhibition | -1.14
O=C(Nc1ccc([N+](=O)[O-])cc1)OCCc1ccccn1 | inhibition | -49.3

Per the records, this compound ( O=C(O)C(c1cccs1)C1(O)CCCCC1 (stereo not drawn) ) has inhibition equal to 6.28

Per the records, this compound ( CCOc1ccc(S(=O)(=O)N2CCC(C(=O)OCc3ccc(OC)cc3)CC2)cc1 ) has inhibition equal to 0.411

* * *

assay_remarks: inhibitors of CD40-induced NF-kB signaling, primary screen, BL2 cells, luciferase reporter, single point (AID 1053188);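 also: 0% = neutral control wells and 100% = IKK inhibitor VII at 50 µM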
condition_notes: CD40L-induced, 4 h; at 10 µM unless noted
In all, about 83,000 compounds went through this assay and about 780 (0.94%) were called active.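 The calls were made as follows: active = mean inhibition of at least 50% with a set share of replicates also reaching that level; inconclusive = no clear call, values can overlap the other calls; inactive = the rest.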 This excerpt belongs to a sample that is enriched for actives.
Pick one and only one: TRUE (active), FALSE (inactive)

# example entries with known answers
compound | label
CCc1nnc(NC(=O)c2cccc(S(=O)(=O)N(C)c3ccc(OC)cc3)c2)s1 | FALSE
O=C(Nc1ccc(Cl)cc1)Nc1nnc(/C=C/c2ccccc2)s1 | FALSE
COc1ccccc1C(=O)NNC(=O)c1ccc(NC(=O)c2ccccc2)cc1 | FALSE

Returns: the outcome recorded for Cc1nnc2sc(-c3ccco3)nn12 in this assay.
FALSE

Returns: the outcome recorded for c1ccc(CNCc2ccc(CNCc3ccccc3)cc2)cc1 in this assay.
FALSE

Returns: the outcome recorded for CC(C)c1nc(-c2ccccn2)no1 in this assay.
FALSE

Returns: the outcome recorded for C[C@H]1CN([C@@H](C)CO)C(=O)c2cc(C#CC3(O)CCCC3)cnc2O[C@@H]1CN(C)C(=O)Cc1ccccc1 in this assay.
FALSE

Returns: the outcome recorded for O=C(Nc1ccc(N2CCOCC2)cc1)c1cccc(S(=O)(=O)N2CCOCC2)c1 in this assay.
FALSE

Returns: the outcome recorded for OCCN1CCN(CCO)C1=S in this assay.
FALSE

Returns: the outcome recorded for Cn1c(-c2ccco2)nc2cc3ccccc3cc21 in this assay.
TRUE

Returns: the outcome recorded for c1ccc(C(=NNc2nc3ccccc3s2)c2ccccn2)cc1 in this assay.
TRUE

Returns: the outcome recorded for CCC(=O)N1[C@@H](CO)[C@@H](c2ccc(C3=CCCC3)cc2)C12CN(C(=O)COC)C2 in this assay.
FALSE

Returns: the outcome recorded for Cc1ccc(NC(=O)c2ccco2)cc1 in this assay.
FALSE

* * *

assay_remarks: inhibitors of CD40-induced NF-kB signaling, primary screen, BL2 cells, luciferase reporter, single point (AID 1053188);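 also: 0% = neutral control wells and 100% = IKK inhibitor VII at 50 µM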
condition_notes: CD40L-induced, 4 h; at 10 µM unless noted
Hit rate of the full screen: of about 83,000 compounds, about 780 (0.94%) were called active.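 Rule for the calls: active = mean inhibition of at least 50% with a set share of replicates also reaching that level; inconclusive = no clear call, values can overlap the other calls; inactive = the rest.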 What follows is part of a selection rich in actives, with near analogues and random picks from the rest.
Pick one and only one: active, inactive

# example entries with known answers
compound | label
COC(=O)Cc1c(-c2[nH]c3ccccc3c2CC(=O)OC)[nH]c2ccccc12 | inactive
CC(C)NC(=O)N(C)C[C@H]1Oc2ccc(N(C)C)cc2CC(=O)N(C)C[C@@H]1C | inactive
CCOc1cc(C(=O)N(Cc2ccccc2)c2ccc(C)cc2)ccc1OCC(=O)N1CCOCC1 | inactive
O=C(CCCCCCCC(=O)N1CCCCC1)N1CCCCC1 | inactive
N/C(=N\OC(=O)c1ccc([N+](=O)[O-])cc1)c1ccccn1 | active
N#C[C@@H]1[C@H](c2ccc(C#CC3CCCCC3)cc2)[C@@H](CO)N1S(=O)(=O)c1ccccc1 | active

Returns: the outcome recorded for Cc1ccc(S(=O)(=O)N2CCN(C(=O)COC(=O)CNC(=O)c3ccc(C(C)(C)C)cc3)CC2)c(C)c1 in this assay.
inactive

Returns: the outcome recorded for CC(=O)Nc1cccc(C(=O)OCC(=O)NCc2cc(C)c(O)c(C)c2)c1 in this assay.
inactive
